EXPERIMENT NOTES: protein stability index of a GFP-peptide fusion (yeast GPS) (PSI 1-4); higher = more stable; sorted into four equal gates, so the index is relative within each strain
CONDITIONS USED: ubr1∆
MEASUREMENT KIND: protein stability index
# print the numeric value only

For TKFSNPAIPPVIDLEKI [BRR2] the sequence record lists protein stability index as 2.65

Form field protein stability index, entry YPNSSKLKRNSDRREHD [LIN1] : 3.03

Entry TELLNIYDSEDPQQVFD [RPN3] ; protein stability index = 2.87

Reported protein stability index of VFQAKMMDMLKQTGRDQ [RPN11] : 2.96

Briefly, protein stability index measured for WRQFGNRMQISPDQMRN [GRR1] : 2.75

protein stability index reading for NNIVSVLTAGVNSVAIK [RPN11] : 1.97

The sequence listed as GTNPLSSDGAYTEQFQH [SSN2] has a reported protein stability index of 3.06

Record summary for NTLGKGQNCLDIDGIMD [SNU114] : reported protein stability index = 3.2

More entries:
Reported protein stability index ( VGKRVPIVEDRRVKQLD [SIR4] ) = 3.35

Recorded protein stability index (sequence IYDFHKMENLMRLIKRV [YJL039C/NUP192] ): 2.57

protein stability index reading for QDVAAKCKEVGITAVHV [RPS14B] : 2.18

----------
EXPERIMENT NOTES: protein stability index of a GFP-peptide fusion (yeast GPS) (PSI 1-4); higher = more stable; sorted into four equal gates, so the index is relative within each strain
CONDITIONS USED: ubr1∆
MEASUREMENT KIND: protein stability index
Respond with the number and no other words.

Guide cases for protein stability index, answers given:
Looking up KKLEITSDGALSVMCGC [RPR2] , I see its protein stability index listed as 2.93

// protein stability index lookup, sequence = TKVLNMKPSEILSLIEE [SMC2] , result: 2.9

Consider TASVEKAEFSKEMTLQK [YIL149C/MLP2] . Its measured protein stability index is 3.22

The sequence QSKKLIEEKLSSFSKKT [YIL149C/MLP2] showed protein stability index equal to 3.02

For reference, reported protein stability index for ILDNINHNGSALLIEVF [ITC1] stands at 1.22

New cases:
Memo: IEILVKDNECSSFEENN [RRI2] , reported protein stability index: 3.33

protein stability index measured on GWDSLASRNVWSFYNGN [SNU114] = 3.22

protein stability index in this record for IITSGRDTREVLEERER [ARP9] : 3.52

protein stability index reading for LVGRLRKCETQKQWDDI [YCS4] : 1.48

The recorded protein stability index for entry LEMLKPCVEDGFVIQDR [RPB2] equals 3.23

Record summary for FEGTDDNEEASVKLDLQ [BRN1] : reported protein stability index = 3.35

Form field protein stability index, entry GPRAVLTRQPTEGRSRD [RET1] : 3.34

The recorded protein stability index for entry EAVVDQDVQRTCILHGP [FAS1] equals 3.38

Entry NLEQINEDLEDGHYIEE [REC8] , protein stability index reported as 3.2

Sure, the documented protein stability index for IVACELILSGDTTANNG [YJL039C/NUP192] is 1.7

So for WKDFTVEIAFLFRAIYL [YCG1] , the logged protein stability index turned out to be 2.26

From: the supplement of paper PMC9732359
